Test system: MALME-3M melanoma
ASSAY_COMMENT: NCI tumour cell line growth inhibition, 48 h
# log10 of TGI values compiled below
QUANTITY_MEASURED: log10 of TGI (log10 of the value in µM)

COMPOUND	log10 of TGI
O=C1C=CC(=O)c2c(O)c(NCCN3CCOCC3)c(Cl)c(O)c21	0.52
COc1cc2c(c(OC)c1OC)-c1ccc(OC)c(=O)cc1C(NC(=O)CCCCCNc1ccc(N=[N+]=[N-])cc1[N+](=O)[O-])CC2 (stereo unspecified)	1.42
O=C([O-])c1ccccc1Nc1ccccc1C(=O)[O-].[OH3+].[Zn+2]	1.70
Cc1cc(C)c([I+]c2c(C)cc(C)cc2C)c(C)c1	0.16
N#Cc1ccc2[nH]cc(Cc3c[nH]c4ccc(C#N)cc34)c2c1	1.32
CC(C)(C)OC(=O)NCC(c1c[nH]c2cc(Br)ccc12)c1c[nH]c2cc(Br)ccc12	1.50
Cc1ccc(C(=O)C2C=C(c3ccc(C)cc3)SC3C=CCC32)cc1 (stereo unspecified)	1.53
COc1ccc2nc(N/N=C/c3ccc(C)s3)cc(C)c2c1	1.77
CCCCSC1CCSc2c1ccc1ccccc21 (stereo unspecified)	1.67
O=C(N/N=C/c1ccc([N+](=O)[O-])cc1)c1ccccc1Nc1ccnc(C(F)(F)F)c1	1.53
C#Cc1cccc(Nc2nc(C)nc3cc(NC(=O)CCl)ccc23)c1	0.05
O=c1cc(-c2ccccc2)oc2c(O)c(O)ccc12	1.78
CC1(C)CC[C@]2(C(=O)NCCNCCN)CC[C@]3(C)C(=CC[C@@H]4[C@@]5(C)CCC(=O)C(C)(C)[C@@H]5CC[C@]43C)[C@@H]2C1	0.54
N[C@@H](Cc1c[nH]c2ccccc12)C(=O)NC1CCN(Cc2c[nH]c3ccc(Cl)cc23)CC1	0.60
C[C@]12CC[C@@H]3c4ccc(O)cc4CC[C@H]3[C@@H]1CC(Cc1ccccc1)(Cc1ccccc1)C2=O	1.69
COc1cc(OCCCN2CCCC2)ccc1Nc1ncc(Cl)c(Nc2ccccc2P(C)(C)=O)n1	1.35
Oc1c(CN2CCCCC2)ccc2cccnc12	1.72
O=C(Nc1ccc(Cl)cc1)c1cc(NCc2cc(O)ccc2O)ccc1O	1.23
CC(C)(C)c1ccc(NS(=O)(=O)c2ccc(N)cc2)cc1	1.60
